# Target: T1, human IL-31-His (human, UniProt Q6EBC2 24-164)
# T1 construct: form captured via anti-His tag antibody in the SPR of the scFvs (sections 1.8 and 2.4); also called hIL-31; not shown: His tag
# T1 sequence (looked up): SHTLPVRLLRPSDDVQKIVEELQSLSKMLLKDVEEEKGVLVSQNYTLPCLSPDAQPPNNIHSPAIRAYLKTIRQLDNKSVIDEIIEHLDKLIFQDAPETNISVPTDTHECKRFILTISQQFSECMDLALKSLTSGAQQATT
# Protocol: SPR (Biacore T200), human IL-31-His captured via anti-His antibody, scFv as analyte
pKd: −log10 of the molar value.
// reported pKd per item

| Binder | pKd |
| --- | --- |
| PRO1643 (scFv, scFv (VL-linker-VH), full graft of rabbit clone 50-09-D07; also called 50-09-D07-sc03; 50-09-D07-5c03) scFv: AFQLTQSPSSLSASVGDRVTITCQASQSIDSWLAWYQQKPGKPPKLLIYQASKLASGVPSRFSGSGSGTDYTLTISSLQPEDFATYYCQTYYGGGHIGWGFGTGTKVTVLGGGGGSGGGGSGGGGSGGGGSQSQLVESGGGLVQPGGSLRLSCAASGFSFSANYWICWVRQAPGKGLEWIVCIYIGSRADTYYAPWAKGRFTISKDNSKNTVYLQMNSLRAEDTAVYFCARFSSGIYDLDRFFLWGQGTLVTVSS | 8.95 |
| PRO1902 (scFv, scFv (VL-linker-VH); variant of PRO1643 with VH Y59S (AHo numbering); also called 50-09-D07-sc06; 50-09-D07-5c06) scFv: AFQLTQSPSSLSASVGDRVTITCQASQSIDSWLAWYQQKPGKPPKLLIYQASKLASGVPSRFSGSGSGTDYTLTISSLQPEDFATYYCQTYYGGGHIGWGFGTGTKVTVLGGGGGSGGGGSGGGGSGGGGSQSQLVESGGGLVQPGGSLRLSCAASGFSFSANYWICWVRQAPGKGLEWIVCISIGSRADTYYAPWAKGRFTISKDNSKNTVYLQMNSLRAEDTAVYFCARFSSGIYDLDRFFLWGQGTLVTVSS | 8.54 |
| PRO1901 (scFv, scFv (VL-linker-VH); variant of PRO1643 with VH L12S, V103T, L144Q (AHo numbering); also called 50-09-D07-sc05) scFv: AFQLTQSPSSLSASVGDRVTITCQASQSIDSWLAWYQQKPGKPPKLLIYQASKLASGVPSRFSGSGSGTDYTLTISSLQPEDFATYYCQTYYGGGHIGWGFGTGTKVTVLGGGGGSGGGGSGGGGSGGGGSQSQLVESGGGSVQPGGSLRLSCAASGFSFSANYWICWVRQAPGKGLEWIVCIYIGSRADTYYAPWAKGRFTISKDNSKNTVYLQMNSLRAEDTATYFCARFSSGIYDLDRFFLWGQGTQVTVSS | 9.02 |
| PRO1900 (scFv, scFv (VL-linker-VH); variant of PRO1643 with VH L12R, V103T, L144Q (AHo numbering); also called 50-09-D07-sc04; 50-09-D07-5c04) scFv: AFQLTQSPSSLSASVGDRVTITCQASQSIDSWLAWYQQKPGKPPKLLIYQASKLASGVPSRFSGSGSGTDYTLTISSLQPEDFATYYCQTYYGGGHIGWGFGTGTKVTVLGGGGGSGGGGSGGGGSGGGGSQSQLVESGGGRVQPGGSLRLSCAASGFSFSANYWICWVRQAPGKGLEWIVCIYIGSRADTYYAPWAKGRFTISKDNSKNTVYLQMNSLRAEDTATYFCARFSSGIYDLDRFFLWGQGTQVTVSS | 9.04 |
